- Tested on: 380;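 further: ALL cell lines in 384-well plates, five doses spanning 10,000-fold, each plate scaled between vehicle and 100 µmol/L benzalkonium chloride controls, sDSS an adapted area-under-curve metric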
- test-description: selective drug sensitivity score (sDSS, relative to normal bone marrow) (sDSS (score)); higher = more potent and effective on the cell line relative to normal bone marrow cells
- measurement-setup: 72 h
observed-property: selective drug sensitivity score
Numbers only.

Check out these entries, answers already filled in.
CNC(=O)c1ccc(C)c(-n2c(C)cc(OCc3ccc(F)cc3F)c(Br)c2=O)c1 (top concentration 1000 nM); 0
COc1cc(C)c(/C=C/C(C)=C/C=C/C(C)=C/C(=O)O)c(C)c1C [Acitretin] (top concentration 10000 nM); 15.2
O=c1[nH]c(=O)n([C@H]2C[C@H](O)[C@@H](CO)O2)cc1C(F)(F)F [Trifluridine] (top concentration 10000 nM); 14
Cn1ncc(Cl)c1-c1cc(C(=O)N[C@H](CN)Cc2ccc(F)c(F)c2)oc1Cl [Uprosertib] (top concentration 10000 nM); 0.6
c1cn2cc(-c3ccc4cn[nH]c4c3)nc(Nc3ccc(N4CCOCC4)cc3)c2n1 [Entospletinib] (top concentration 5000 nM); -0.64

// input: 3 compounds below; output: selective drug sensitivity score for each
1. Cc1sc2c(c1C)C(c1ccc(Cl)cc1)=N[C@@H](CC(=O)NCCCCNC(=O)COc1cccc3c1C(=O)N(C1CCC(=O)NC1=O)C3=O)c1nnc(C)n1-2 (stereo partly drawn) [dBET1] (top concentration 10000 nM)
2. CN1CCN(C(=O)c2ccc3cc(CCNc4ncnc5ccc(C#N)cc45)ccc3c2)CC1 [Senexin_B] (top concentration 1000 nM)
3. CCCCCCCCCCCCCCCCCCOP(=O)([O-])OC1CC[N+](C)(C)CC1 [Perifosine] (top concentration 2500 nM)

-4.58
-0.6
-0.16
